Parameter solubility at 24 h: see the listing below.
experiment: Measurement of solubility (HPLC); assay type: physicochemical; settings: FeSSIF (artificial intestinal fluid), thermodynamic from solid; FeSSIF (pH 6.5), after 24 h
Give the value, in units of mg/mL, as a plain number.

CC#CC(=O)N1CC[C@@H](n2c(=O)n(-c3ccc(Oc4ccccc4)cc3)c3c(N)ncnc32)C1 | 0.084

Please turn your attention to the following entry.
Return the recorded solubility at 24 h value; entry: CC#CC(=O)N1CC[C@@H](n2c(=O)n(-c3ccc(Oc4ccccc4)cc3)c3c(N)ncnc32)C1.Cl
0.301

###

assay: Measurement of solubility (HPLC); type: physicochemical; conditions: FaSSIF (artificial intestinal fluid), thermodynamic from solid; FaSSIF (pH 6.5), after 30 min
MEASURE NAME: solubility at 30 min (mg/mL)
Give the value, in units of mg/mL, as a plain number.

CC#CC(=O)N1CC[C@@H](n2c(=O)n(-c3ccc(Oc4ccccc4)cc3)c3c(N)ncnc32)C1 | 0.035

Please turn your attention to the following entry.
Return the recorded solubility at 30 min value; entry: CC#CC(=O)N1CC[C@@H](n2c(=O)n(-c3ccc(Oc4ccccc4)cc3)c3c(N)ncnc32)C1.Cl
0.145

###

Parameter solubility at 24 h: see the listing below.
assay: Measurement of solubility (HPLC); format: physicochemical; conditions: diluted McIlvaine buffer, aqueous buffer, thermodynamic from solid; Dilute McIlvaine buffer (pH 7.4), after 24 h
Give the value, in units of µg/mL, as a plain number.

CC#CC(=O)N1CC[C@@H](n2c(=O)n(-c3ccc(Oc4ccccc4)cc3)c3c(N)ncnc32)C1.Cl | 106

Return the recorded solubility at 24 h value; entry: CC#CC(=O)N1CC[C@@H](n2c(=O)n(-c3ccc(Oc4ccccc4)cc3)c3c(N)ncnc32)C1
29

###

assay: Measurement of solubility (HPLC); format: physicochemical; details: thermodynamic from solid; Purified water, after 30 min
Parameter solubility at 30 min: see the listing below.
Give the value, in units of µg/mL, as a plain number.

CC#CC(=O)N1CC[C@@H](n2c(=O)n(-c3ccc(Oc4ccccc4)cc3)c3c(N)ncnc32)C1 | 32

Please turn your attention to the following entry.
Return the recorded solubility at 30 min value; entry: CC#CC(=O)N1CC[C@@H](n2c(=O)n(-c3ccc(Oc4ccccc4)cc3)c3c(N)ncnc32)C1.Cl
130

###

Parameter solubility at 30 min: see the listing below.
test: Measurement of solubility (HPLC); assay type: physicochemical; conditions: diluted McIlvaine buffer, aqueous buffer, thermodynamic from solid; Dilute McIlvaine buffer (pH 4.0), after 30 min

CC#CC(=O)N1CC[C@@H](n2c(=O)n(-c3ccc(Oc4ccccc4)cc3)c3c(N)ncnc32)C1 | 30 µg/mL

Please turn your attention to the following entry.
Return the recorded solubility at 30 min value; entry: CC#CC(=O)N1CC[C@@H](n2c(=O)n(-c3ccc(Oc4ccccc4)cc3)c3c(N)ncnc32)C1.Cl
125 µg/mL

###

experiment: Measurement of solubility (HPLC); type: physicochemical; settings: FeSSIF (artificial intestinal fluid), thermodynamic from solid; FeSSIF (pH 6.5), after 30 min
MEASURE NAME: solubility at 30 min

CC#CC(=O)N1CC[C@@H](n2c(=O)n(-c3ccc(Oc4ccccc4)cc3)c3c(N)ncnc32)C1.Cl | 356 µg/mL

Please turn your attention to the following entry.
Return the recorded solubility at 30 min value; entry: CC#CC(=O)N1CC[C@@H](n2c(=O)n(-c3ccc(Oc4ccccc4)cc3)c3c(N)ncnc32)C1
67 µg/mL

###

Parameter solubility at 24 h: see the listing below.
experiment: Measurement of solubility (HPLC); format: physicochemical; conditions: thermodynamic from solid; Purified water, after 24 h
Give the value, in units of µg/mL, as a plain number.

Return the recorded solubility at 24 h value; entry: CC#CC(=O)N1CC[C@@H](n2c(=O)n(-c3ccc(Oc4ccccc4)cc3)c3c(N)ncnc32)C1.Cl [Example 9]
144

Return the recorded solubility at 24 h value; entry: CC#CC(=O)N1CC[C@@H](n2c(=O)n(-c3ccc(Oc4ccccc4)cc3)c3c(N)ncnc32)C1 [Compound A]
34

###

Parameter solubility at 30 min: see the listing below.
experiment: Measurement of solubility (HPLC); assay type: physicochemical; details: Japanese Pharmacopoeia dissolution test II liquid, aqueous buffer, thermodynamic from solid; JP dissolution test II liquid (pH 6.8), after 30 min
Give the value, in units of µg/mL, as a plain number.

CC#CC(=O)N1CC[C@@H](n2c(=O)n(-c3ccc(Oc4ccccc4)cc3)c3c(N)ncnc32)C1.Cl | 112

Return the recorded solubility at 30 min value; entry: CC#CC(=O)N1CC[C@@H](n2c(=O)n(-c3ccc(Oc4ccccc4)cc3)c3c(N)ncnc32)C1
31

###

Parameter solubility at 24 h: see the listing below.
experiment: Measurement of solubility (HPLC); assay type: physicochemical; conditions: diluted McIlvaine buffer, aqueous buffer, thermodynamic from solid; Dilute McIlvaine buffer (pH 4.0), after 24 h
Give the value, in units of µg/mL, as a plain number.

CC#CC(=O)N1CC[C@@H](n2c(=O)n(-c3ccc(Oc4ccccc4)cc3)c3c(N)ncnc32)C1 | 34

Please turn your attention to the following entry.
Return the recorded solubility at 24 h value; entry: CC#CC(=O)N1CC[C@@H](n2c(=O)n(-c3ccc(Oc4ccccc4)cc3)c3c(N)ncnc32)C1.Cl
117

###

Parameter solubility at 24 h: see the listing below.
Assay: Measurement of solubility (HPLC)
Format: physicochemical
Settings: Japanese Pharmacopoeia dissolution test I liquid, simulated gastric fluid, thermodynamic from solid; JP dissolution test I liquid (pH 1.2), after 24 h
Experimental: <HPLC Measurement Conditions> Device: HPLC 1100series, Agilent Column: YMC-Pack ODS-AM AM-302 (4.6 mm ID×150 mm long) Column temperature: 25° C. Mobile phase: 20 mM potassium phosphate monobasic (pH 3.0)/acetonitrile (60:40, isocratic) Sample rack temperature: 25° C. Sample injection volume: 10 μL
Give the value, in units of µg/mL, as a plain number.

Return the recorded solubility at 24 h value; entry: CC#CC(=O)N1CC[C@@H](n2c(=O)n(-c3ccc(Oc4ccccc4)cc3)c3c(N)ncnc32)C1.Cl
1210

Return the recorded solubility at 24 h value; entry: CC#CC(=O)N1CC[C@@H](n2c(=O)n(-c3ccc(Oc4ccccc4)cc3)c3c(N)ncnc32)C1
717

###

experiment: Blood kinetics in dogs; type: in vivo; settings: male, beagle, dog, plasma; solubilized solution (WellSolve), oral gavage 1 mg/kg vs intravenous 1 mg/kg, fasted dogs; read-out: bioavailability (BA)
MEASURE NAME: bioavailability (%)
Give the value, in units of %, as a plain number.

Return the recorded bioavailability value; entry: CC#CC(=O)N1CC[C@@H](n2c(=O)n(-c3ccc(Oc4ccccc4)cc3)c3c(N)ncnc32)C1 [Compound A]
115

###

experiment: Measurement of solubility (HPLC); type: physicochemical; conditions: Japanese Pharmacopoeia dissolution test II liquid, aqueous buffer, thermodynamic from solid; JP dissolution test II liquid (pH 6.8), after 24 h
MEASURE NAME: solubility at 24 h (µg/mL)
Give the value, in units of µg/mL, as a plain number.

CC#CC(=O)N1CC[C@@H](n2c(=O)n(-c3ccc(Oc4ccccc4)cc3)c3c(N)ncnc32)C1.Cl | 111

Return the recorded solubility at 24 h value; entry: CC#CC(=O)N1CC[C@@H](n2c(=O)n(-c3ccc(Oc4ccccc4)cc3)c3c(N)ncnc32)C1
32

###

assay: Measurement of solubility (HPLC); type: physicochemical; settings: Japanese Pharmacopoeia dissolution test I liquid, simulated gastric fluid, thermodynamic from solid; JP dissolution test I liquid (pH 1.2), after 30 min
MEASURE NAME: solubility at 30 min (µg/mL)
Give the value, in units of µg/mL, as a plain number.

Return the recorded solubility at 30 min value; entry: CC#CC(=O)N1CC[C@@H](n2c(=O)n(-c3ccc(Oc4ccccc4)cc3)c3c(N)ncnc32)C1 [Compound A]
550

Return the recorded solubility at 30 min value; entry: CC#CC(=O)N1CC[C@@H](n2c(=O)n(-c3ccc(Oc4ccccc4)cc3)c3c(N)ncnc32)C1.Cl [Example 9]
1220

The origin of these recorded values is patent US9199997B2.
